Attribution: the OligoGym collection

Known target mRNA knockdown of a selection of substances
details: siRNA; further: test system not given here
HELM strings list units from the 5' end as sugar, base in round brackets, then linkage (d deoxyribose, r ribose, m 2'-O-methyl, p phosphodiester). Strings are as the collection lists them, not checked against the first reports. ss, as = sense and antisense strand; [hna] = hexitol nucleic acid; [fl2r] = 2'-fluoro
Measurement kind: target mRNA knockdown (%)

1. RNA1{[hna](G)p.[hna](A)p.[hna](C)p.r(G)p.r(U)p.r(A)p.r(A)p.r(A)p.r(C)p.r(G)p.r(G)p.r(C)p.r(C)p.r(A)p.r(C)p.r(A)p.r(A)p.[hna](G)p.[hna](U)p.[hna](U)p.d(T)}|RNA2{r(A)p.r(C)p.r(U)p.r(U)p.r(G)p.r(U)p.r(G)p.r(G)p.r(C)p.r(C)p.r(G)p.r(U)p.r(U)p.r(U)p.r(A)p.r(C)p.r(G)p.r(U)p.r(C)p.r(G)p.r(C)}$$$RNA1{StrandType:ss}|RNA2{StrandType:as}$ : 89
2. RNA1{m(A)p.r(A)p.m(G)p.r(G)p.m(A)p.r(A)p.m(C)p.r(G)p.m(G)p.r(G)p.m(G)p.r(A)p.m(C)p.r(A)p.m(C)p.r(U)p.m(U)p.r(A)p.m(C)p.r(T)p.r(T)}|RNA2{r(G)p.r(U)p.r(A)p.r(A)p.r(G)p.r(U)p.r(G)p.r(U)p.r(C)p.r(C)p.r(C)p.r(C)p.r(G)p.r(U)p.r(U)p.r(C)p.r(C)p.r(U)p.r(U)p.r(T)p.r(T)}$$$RNA1{StrandType:ss}|RNA2{StrandType:as}$ : 12
3. RNA1{r(C)p.r(G)p.r(A)p.r(A)p.r(A)p.r(G)p.r(U)p.r(G)p.r(U)p.r(A)p.r(U)p.r(C)p.r(C)p.r(G)p.r(A)p.r(A)p.r(G)p.r(A)p.r(C)p.r(T)p.r(T)}|RNA2{r(G)p.r(U)p.r(C)p.r(U)p.r(U)p.r(C)p.r(G)p.r(G)p.r(A)p.[fl2r](U)p.r(A)p.r(C)p.r(A)p.r(C)p.r(U)p.r(U)p.r(U)p.r(C)p.r(G)p.r(T)p.r(T)}$$$RNA1{StrandType:ss}|RNA2{StrandType:as}$ : 69

* * *

Reported target mRNA knockdown values for the following substances.
conditions: siRNA
HELM strings list units from the 5' end as sugar, base in round brackets, then linkage (d deoxyribose, r ribose, m 2'-O-methyl, p phosphodiester). Strings are as the collection lists them, not checked against the first reports. ss, as = sense and antisense strand
Measurement kind: target mRNA knockdown (%)

1. RNA1{r(A)p.m(A)p.r(G)p.m(G)p.r(A)p.m(G)p.r(A)p.m(U)p.r(C)p.m(A)p.r(A)p.m(C)p.r(A)p.m(U)p.r(U)p.m(U)p.r(U)p.m(C)p.r(A)p.r(T)p.r(T)}|RNA2{m(U)p.r(G)p.m(A)p.r(A)p.m(A)p.r(A)p.m(U)p.r(G)p.m(U)p.r(U)p.m(G)p.r(A)p.m(U)p.r(C)p.m(U)p.r(C)p.m(C)p.r(U)p.m(U)p.r(T)p.r(T)}$$$RNA1{StrandType:ss}|RNA2{StrandType:as}$ : 83
2. RNA1{r(G)p.r(A)p.m(U)p.r(A)p.r(G)p.r(G)p.r(A)p.r(A)p.r(G)p.r(G)p.r(G)p.r(G)p.r(C)p.r(U)p.r(U)p.r(C)p.r(A)p.r(G)p.r(C)p.r(T)p.r(T)}|RNA2{r(G)p.r(C)p.r(U)p.r(G)p.r(A)p.r(A)p.r(G)p.r(C)p.r(C)p.r(C)p.r(C)p.r(U)p.r(U)p.r(C)p.r(C)p.m(U)p.m(A)p.r(U)p.r(C)p.r(T)p.r(T)}$$$RNA1{StrandType:ss}|RNA2{StrandType:as}$ : 41
